- target.desc: HCV polymerase (NS5B570n-Con1) (Hepatitis C virus genotype 1b, UniProt Q9WMX2);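 note: recombinant His-tagged enzyme from E. coli, radiolabeled nucleotide incorporation into acid-insoluble RNA read by scintillation after filtration, no-enzyme background subtracted, activity relative to positive control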
- Construct: contains a 21 amino acid deletion at the C-terminus relative to the full-length HCV polymerase; 6-histidine (N); made in house; host or cells: E. coli strain BL21(DE) pLysS (pET17b)
- method.description: biochemical
- Set-up: species or system HCV Con1 strain
- condition: IC50 HCV NS5B RNA Polymerase Assay, values without asterisk; 20 nM NS5B570n-Con1 enzyme, 20 nM cIRES RNA template
pIC50: −log10 of the molar value.
Class (required): determined from pIC50; valid ranges are low-valued = under 6, mid-valued = from 6 up to 8, high-valued = 8 and over

Completed entries (count: 5):
smi	assigned.label
CCC(C)(C)c1cc(Br)c(O)c(-c2ccc[nH]c2=O)c1	low-valued
COc1c(/C=C/c2ccc(NS(C)(=O)=O)cc2C#N)cc(-c2ccc[nH]c2=O)cc1C(C)(C)C	high-valued
COc1c(NC(=O)c2ccc(NS(C)(=O)=O)cc2OCCN(C)C)cc(-c2ccc[nH]c2=O)cc1C(C)(C)C	mid-valued
COc1c(NC(=O)c2ccc(N)cc2OCCN(C)C)cc(-c2ccc[nH]c2=O)cc1C(C)(C)C	low-valued
CC(=O)Nc1c(CCc2ccc(NS(C)(=O)=O)cc2)cc(C(C)(C)C)cc1-c1ccc[nH]c1=O	mid-valued

Q: GET /class?item= COc1c(CCc2ccc(NS(C)(=O)=O)nn2)cc(-c2ccc[nH]c2=O)cc1C(C)(C)C
Ans: high-valued
